Numbers sourced from patent US20240425571A1.

# target-system: T1, human GARP (glycoprotein A repetitions predominant, LRRC32) on the cell surface (human, UniProt Q14392 20-662)
# T1 construct: whole, on cells; also called hGARP; free GARP
# T1 sequence (looked up): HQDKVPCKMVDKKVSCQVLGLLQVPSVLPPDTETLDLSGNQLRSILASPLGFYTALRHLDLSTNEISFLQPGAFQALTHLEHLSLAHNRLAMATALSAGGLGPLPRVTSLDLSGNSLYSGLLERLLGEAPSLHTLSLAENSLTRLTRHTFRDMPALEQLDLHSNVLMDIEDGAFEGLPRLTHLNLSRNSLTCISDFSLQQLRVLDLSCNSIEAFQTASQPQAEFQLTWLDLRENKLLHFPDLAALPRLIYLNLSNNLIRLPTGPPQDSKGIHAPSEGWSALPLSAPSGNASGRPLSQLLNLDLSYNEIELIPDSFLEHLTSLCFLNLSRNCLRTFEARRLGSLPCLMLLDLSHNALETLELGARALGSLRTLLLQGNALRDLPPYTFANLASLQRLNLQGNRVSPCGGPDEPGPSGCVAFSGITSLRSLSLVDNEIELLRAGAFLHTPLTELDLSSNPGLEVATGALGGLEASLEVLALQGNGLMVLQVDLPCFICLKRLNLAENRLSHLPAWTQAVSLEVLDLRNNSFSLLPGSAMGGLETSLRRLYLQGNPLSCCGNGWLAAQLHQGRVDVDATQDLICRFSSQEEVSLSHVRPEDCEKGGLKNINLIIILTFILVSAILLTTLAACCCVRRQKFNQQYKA
# test-description: FACS, Ag(+) cells, culture supernatant, 0.2 ug/ml
endpoint-label: MFI (MFI)
Enter your answer as a number in MFI; do not include the unit.

input: MFI for huPIIO-1VH3VL3 (antibody, V domains shown, Humanized IgG from Expi293, tested as culture supernatant; also called H3L3; HuPIIO-1VH3/L3) VH: DVQLQESGPGLVKPSQTLSLTCTVSGYSITSDYAWNWIRQFPGNKLEWMGYISYSGSTSYTPSLKSRITISRDTSKNHFFLKLSSVTAADTATYYCAKSGGDYYGSSSYWYFDVWGQGTTVTVSS VL: DIVLTQSPSSLAVSAGERVTMSCKSSQSLLNSRSQKNYLAWYQQKPGQPPKLLIYGASTRGSGVPDRFSGSGSGTDFTLTISSVQAEDVAVYYCQNDHSYPFTFGSGTKLEIKR ?
output: 21.9
